Target: Muscarinic acetylcholine receptor M4 (Rattus norvegicus) (UniProt P08485)
Sequence (P08485 whole entry, looked up): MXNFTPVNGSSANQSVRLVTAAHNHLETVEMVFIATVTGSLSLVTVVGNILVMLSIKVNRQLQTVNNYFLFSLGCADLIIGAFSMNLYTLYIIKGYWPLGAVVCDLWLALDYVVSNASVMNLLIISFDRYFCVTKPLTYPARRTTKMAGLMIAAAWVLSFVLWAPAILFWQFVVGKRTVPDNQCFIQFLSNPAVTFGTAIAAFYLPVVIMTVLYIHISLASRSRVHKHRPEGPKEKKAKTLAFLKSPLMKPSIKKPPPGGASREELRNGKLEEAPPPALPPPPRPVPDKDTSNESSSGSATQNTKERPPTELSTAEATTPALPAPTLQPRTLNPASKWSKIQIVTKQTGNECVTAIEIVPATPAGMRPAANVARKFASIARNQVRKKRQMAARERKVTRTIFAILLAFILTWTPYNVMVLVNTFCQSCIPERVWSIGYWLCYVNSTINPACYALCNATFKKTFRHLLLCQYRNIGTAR
Experiment: rat M4 receptor inhibition concentration-response – cell-based, antagonist mode, counter-screen for M1 allosteric modulator project, dose response (AID 860)
Conditions: rat M4-expressing cells, calcium fluorescence, antagonist mode at EC80 agonist
pIC50: −log10 of the molar value.
Each entry below carries its recorded pIC50.

compound	pIC50
CCN(CC)CCOC(=O)C(c1ccccc1)c1ccccc1	6.13
O=C(NC1CCN(Cc2ccccc2)CC1)C1COc2ccccc2O1 (stereo unspecified)	6.39
OC(CCN1CCCCC1)(c1ccccc1)c1ccccc1	6.95
Cc1ccc(C(=O)C2CCN(CC(=O)NC3CCCCC3)CC2)cc1	7.14
COC(=O)c1ccc(CSc2nc(C)nc3c2c(=O)n(C)c(=O)n3C)o1	5.89
CCN(CCCCOC(=O)c1ccc(OC)c(OC)c1)C(C)Cc1ccc(OC)cc1 (stereo unspecified)	6.13

###

Target: Muscarinic acetylcholine receptor M4 (Rattus norvegicus)
Assay: rat M4 receptor inhibition concentration-response – cell-based, antagonist mode, counter-screen for M1 allosteric modulator project, dose response (AID 860)
Details: rat M4-expressing cells, calcium fluorescence, antagonist mode at EC80 agonist

molecule	study system	IC50
CCN(CC)c1ccc(C2C(C(=O)OCCOC(C)C)=C(C)NC3=C2C(=O)CCC3)cc1 (centres undefined)	Muscarinic acetylcholine receptor M4 (Rattus norvegicus)	822 nM
CCN1C(=O)/C(=C\N2CCCCCC2)SC1=S	Muscarinic acetylcholine receptor M4 (Rattus norvegicus)	759 nM
O=C(CN1CCCC(O)C1)N1c2ccccc2Sc2ccc(C(F)(F)F)cc21 (centres undefined)	Muscarinic acetylcholine receptor M4 (Rattus norvegicus)	979 nM
Cc1nc2c(o1)CCc1ccccc1C2N1CCN(C)CC1 (centres undefined)	Muscarinic acetylcholine receptor M4 (Rattus norvegicus)	38.3 nM
CCC(C)N(CCNC(=O)CC1Oc2ccc(C)cc2NC1=O)C1CCCCC1 (centres undefined)	Muscarinic acetylcholine receptor M4 (Rattus norvegicus)	577 nM
CCC(C)N(CCNC(=O)CC1Oc2ccccc2NC1=O)C1CCCCC1 (centres undefined)	Muscarinic acetylcholine receptor M4 (Rattus norvegicus)	847 nM
OC(CCN1CCCC1)(c1ccccc1)C1CCCCC1 (centres undefined)	Muscarinic acetylcholine receptor M4 (Rattus norvegicus)	34.3 nM
CC1CCN(Cc2ccc(NC(=O)CC3Oc4ccccc4NC3=O)cc2)CC1 (centres undefined)	Muscarinic acetylcholine receptor M4 (Rattus norvegicus)	33.1 nM
O=C(CC(c1ccccc1O)N1CCCCC1)N1CCCCC1 (centres undefined)	Muscarinic acetylcholine receptor M4 (Rattus norvegicus)	752 nM
Cc1ccc2c(c1)NC(=O)C(CC(=O)Nc1ccc(CN3CCC(C)CC3)cc1)O2 (centres undefined)	Muscarinic acetylcholine receptor M4 (Rattus norvegicus)	71.6 nM
CN(C)CCC=C1c2ccccc2CCc2ccccc21	Muscarinic acetylcholine receptor M4 (Rattus norvegicus)	1150 nM
COc1ccc(N2C(=O)CSC23C(=O)N2CCCc4cccc3c42)cc1 (centres undefined)	Muscarinic acetylcholine receptor M4 (Rattus norvegicus)	451 nM
O=C(OCCN1CCCC1)C1(c2ccccc2)CCCC1	Muscarinic acetylcholine receptor M4 (Rattus norvegicus)	325 nM
CN1CCC(=C2c3ccccc3C=Cc3ccccc32)CC1	Muscarinic acetylcholine receptor M4 (Rattus norvegicus)	136 nM
